target: FhCaBP4 (Fasciola hepatica calcium-binding protein 4) (Fasciola hepatica, UniProt I6U578); construct: full-length (residues 1–191), C-terminal 6×His-tag (LEHHHHHH); experiment: microscale thermophoresis (MST), labelled purified protein
Sequence (I6U578 entry or part of it): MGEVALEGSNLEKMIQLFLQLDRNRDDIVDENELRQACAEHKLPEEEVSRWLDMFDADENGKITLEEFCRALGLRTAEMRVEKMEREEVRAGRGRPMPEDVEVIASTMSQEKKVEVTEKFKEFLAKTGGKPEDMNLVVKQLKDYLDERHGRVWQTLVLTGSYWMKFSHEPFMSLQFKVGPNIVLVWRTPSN
Recorded Metric: Kd (µM)
Number only, in µM; omit the unit.

Query CN1CCN(CCCN2c3ccccc3Sc3ccc(C(F)(F)F)cc32)CC1 on FhCaBP4 (Fasciola hepatica calcium-binding protein 4) (Fasciola hepatica, UniProt I6U578); Kd returned: 699

Query CN(C)CCCN1c2ccccc2Sc2ccc(Cl)cc21 on FhCaBP4 (Fasciola hepatica calcium-binding protein 4) (Fasciola hepatica, UniProt I6U578); Kd returned: 289

Query NCCCCCCNS(=O)(=O)c1cccc2c(Cl)cccc12 on FhCaBP4 (Fasciola hepatica calcium-binding protein 4) (Fasciola hepatica, UniProt I6U578); Kd returned: 471
